assay: Permeability of compound by PAMPA assay; assay type: ADME; conditions: read-out: permeability
Recorded Papp, one value per entry.

Some compounds with known Papp results, for comparison:
COMPOUND | REPORTED_RESULT
CC1=C(C(=O)Nc2cc(-c3nn[nH]n3)ccn2)C(c2ccccc2Cl)N=C(Nc2nc3ccc(F)cc3o2)N1 (stereo not drawn) | < 1 ×10⁻⁶ cm/s
COc1ccc2oc(NC3=NC(c4ccccc4Cl)C(C(=O)Nc4nnc(-c5cccnc5)s4)=C(C)N3)nc2c1 (stereo not drawn) | < 19.1 ×10⁻⁶ cm/s
CC1=C(C(=O)Nc2cccc(Cl)c2)C(c2ccccc2Cl)N=C(Nc2nc3ccccc3o2)N1 (stereo not drawn) | < 9.2 ×10⁻⁶ cm/s
CC1=C(C(=O)Nc2cc(C(=O)O)ccn2)C(c2ccc(C)cc2Cl)N=C(Nc2nc3cnccc3o2)N1 (stereo not drawn) | < 1 ×10⁻⁶ cm/s
CC1=C(C(=O)Nc2nnc(-c3cccnc3)s2)C(c2ccccc2Cl)N=C(Nc2nc3ccccc3o2)N1 (stereo not drawn) | < 3.7 ×10⁻⁶ cm/s
CC1=C(C(=O)Nc2cc(C(=O)O)ccn2)C(c2ccc(C(F)(F)F)cc2Cl)N=C(Nc2nc3ccc(F)cc3o2)N1 (stereo not drawn) | < 1 ×10⁻⁶ cm/s
CC1=C(C(=O)Nc2cc(C(=O)O)ccn2)C(c2ccccc2Cl)N=C(Nc2nc3c(Cl)cccc3o2)N1 (stereo not drawn) | < 1.3 ×10⁻⁶ cm/s

Turning now to a further compound:
Ask: What measured Papp goes with `CC1=C(C(=O)Nc2cc(C(=O)O)ccn2)[C@@H](c2ccccc2Cl)N=C(Nc2nc3cccc(N)c3o2)N1` ?
Result: < 1.3 ×10⁻⁶ cm/s

---

test: Permeability of compound by PAMPA assay; assay type: ADME; conditions: read-out: permeability
TEST_READOUT: Papp

Ask: What measured Papp goes with CC1=C(C(=O)Nc2cc(C(=O)O)ccn2)C(c2ccccc2Cl)N=C(Nc2nc3cccc(F)c3o2)N1 (configuration not stated) ?
Result: < 1 ×10⁻⁶ cm/s

---

assay: Stability of compound in mouse liver microsomes assessed as half-life; assay type: ADME, Microsome
TEST_READOUT: half-life (min)
Give the value, in units of min, as a plain number.

Ask: What measured half-life goes with CC1=C(C(=O)NCc2cnn(C)c2)C(c2ccc(C)cc2Cl)N=C(Nc2nc3ccc(F)c(N)c3o2)N1 (stereo unspecified) ?
Result: 13

---

test: Inhibition of recombinant mouse GALK1 using ATP as substrate incubated for 1 hr and measured by Kinase-Glo assay; conditions: read-out: IC50
pIC50: −log10 of the molar value.
TEST_READOUT: pIC50

COMPOUND | pIC50
CC1=C(C(=O)Nc2ccc(C(=O)O)cn2)C(c2ccccc2Cl)N=C(Nc2nc3ccc(F)cc3o2)N1 (configuration not stated) | 5.46
COc1cccc(C2N=C(Nc3nc4ccc(F)cc4o3)NC(C)=C2C(=O)Nc2cc(C(=O)O)ccn2)c1Cl (configuration not stated) | 4.71
CC1=C(C(=O)Nc2nc(C(=O)O)cs2)C(c2ccccc2Cl)N=C(Nc2nc3ccccc3o2)N1 (configuration not stated) | 4.71

a = COC(=O)c1ccnc(NC(=O)C2=C(C)NC(Nc3nc4ccc(F)cc4o3)=N[C@H]2c2ccccc2Cl)c1
b = CC1=C(C(=O)Nc2cc(-c3nn[nH]n3)ccn2)C(c2ccccc2Cl)N=C(Nc2nc3ccc(F)cc3o2)N1 (configuration not stated)
Ask: Field: lower pIC50 | Options: a / b Reply briefly: the label of your chosen item.
Result: b

P = CC1=C(C(=O)Nc2ccc(-n3cncn3)cc2)C(c2ccccc2Cl)N=C(Nc2nc3ccccc3o2)N1 (configuration not stated)
Q = CC1=C(C(=O)NCc2cccc(C(=O)O)c2)C(c2ccccc2Cl)N=C(Nc2nc3ccccc3o2)N1 (configuration not stated)
Ask: // max by pIC50 over [ P , Q ] Reply briefly: the label of your chosen item.
Result: Q
(Q: 4.71, P: 4.46)

1 = COc1ccc(C(=O)O)cc1NC(=O)C1=C(C)NC(Nc2nc3ccc(F)cc3o2)=NC1c1ccccc1Cl (configuration not stated)
2 = CC1=C(C(=O)Nc2nncs2)C(c2ccccc2Cl)N=C(Nc2nc3ccccc3o2)N1 (configuration not stated)
3 = CC1=C(C(=O)Nc2ccc(N3CCNCC3)cc2)C(c2ccccc2Cl)N=C(Nc2nc3ccccc3o2)N1 (configuration not stated)
4 = CC1=C(C(=O)Nc2cc(C(=O)O)ccn2)C(c2ccc(N3CCOCC3)cc2Cl)N=C(Nc2nc3ccc(F)cc3o2)N1 (configuration not stated)
Ask: Hello, I need these entries ordered by pIC50, highest reading first. Thanks! Please reply with the labels ordered as requested. Many thanks.
Result: 4, 2, 1, 3

A = O=C1CC(C(=O)Nc2nncs2)CC2=C1C(c1ccccc1Cl)N=C(Nc1nc3ccccc3o1)N2 (configuration not stated)
B = CC1=C(C(=O)Nc2cc(C(=O)O)ccn2)C(c2ccc(C)cc2Cl)N=C(Nc2nc3cnccc3o2)N1 (configuration not stated)
Ask: // max by pIC50 over [ A , B ] Reply briefly: the label of your chosen item.
Result: B

P = COCCNC(=O)C1CC(=O)C2=C(C1)NC(Nc1nc3ccccc3o1)=NC2c1ccccc1Cl (configuration not stated)
Q = CC1=C(C(=O)Nc2cc(C(=O)O)ccn2)[C@@H](c2ccccc2Cl)N=C(Nc2nc3ccc(F)cc3o2)N1
Ask: Field: lower pIC50 | Options: P / Q Reply briefly: the label of your chosen item.
Result: Q

---

assay: Kinetic aqueous solubility of the compound; type: physicochemical; settings: buffer; read-out: Kinetic_solubility
TEST_READOUT: solubility kinetic (µg/mL)

MOLECULE | TEST_READOUT | UNIT | REPORTED_RESULT
CC1=C(C(=O)Nc2nncs2)C(c2nn(C)cc2Cl)N=C(Nc2nc3ccccc3o2)N1 (stereo not given) | solubility kinetic | µg/mL | 12.8
CC1=C(C(=O)NCc2cnn(C)c2)[C@H](c2ccc(C)cc2Cl)N=C(Nc2nc3cccc(N)c3o2)N1 | solubility kinetic | µg/mL | 17.1

---

experiment: Permeability of compound by PAMPA assay; assay type: ADME; details: read-out: permeability
TEST_READOUT: Papp

Some compounds with known Papp results, for comparison:
COMPOUND | REPORTED_RESULT
O=C1CC(C(=O)Nc2nncs2)CC2=C1C(c1ccccc1Cl)N=C(Nc1nc3ccccc3o1)N2 (stereo unspecified) | < 5 ×10⁻⁶ cm/s
CC1=C(C(=O)Nc2cc(C(=O)O)ccn2)C(c2ccccc2Cl)N=C(Nc2nc3c(C)cccc3o2)N1 (stereo unspecified) | < 1.3 ×10⁻⁶ cm/s
CC1=C(C(=O)Nc2ccc(Br)cc2)C(c2ccccc2Cl)N=C(Nc2nc3ccccc3o2)N1 (stereo unspecified) | < 14.9 ×10⁻⁶ cm/s
CNCCNC(=O)C1=C(C)NC(Nc2nc3ccc(F)cc3o2)=NC1c1ccccc1Cl (stereo unspecified) | > 30 ×10⁻⁶ cm/s

Ask: What measured Papp goes with CC1=C(C(=O)Nc2cc(B(O)O)ccn2)C(c2ccc(C)cc2Cl)N=C(Nc2nc3ccc(F)cc3o2)N1 (stereo unspecified) ?
Result: < 3.2 ×10⁻⁶ cm/s

Ask: Could you do the same for CC1=C(C(=O)Nc2cc(C(=O)O)ccn2)C(c2ccccc2Cl)N=C(Nc2nc3cccc(C(F)(F)F)c3o2)N1 (stereo unspecified) , please?
Result: < 1 ×10⁻⁶ cm/s

---

test: Permeability of compound by PAMPA assay; type: ADME; details: read-out: permeability
Recorded Papp, one value per entry.

MOLECULE | Papp
CC1=C(C(=O)Nc2ccc(C#N)cn2)C(c2ccccc2Cl)N=C(Nc2nc3ccc(F)cc3o2)N1 (stereo not drawn) | < 7.8 ×10⁻⁶ cm/s
O=C1CC(C(=O)N2CCNCC2)CC2=C1C(c1ccccc1Cl)N=C(Nc1nc3ccccc3o1)N2 (stereo not drawn) | < 4.7 ×10⁻⁶ cm/s
CC1=C(C(=O)Nc2cc(C(=O)O)ccn2)C(c2ccccc2Cl)N=C(Nc2nc3c(F)cccc3o2)N1 (stereo not drawn) | > 100 ×10⁻⁶ cm/s
CC1=C(C(=O)Nc2cc(C(=O)O)ccn2)[C@H](c2ccc(C)cc2Cl)N=C(Nc2nc3cccc(N)c3o2)N1 | < 1 ×10⁻⁶ cm/s
CC1=C(C(=O)Nc2cc(C(=O)O)ccn2)C(c2ccc(-n3cccn3)cc2Cl)N=C(Nc2nc3ccc(F)cc3o2)N1 (stereo not drawn) | < 1 ×10⁻⁶ cm/s

Ask: What measured Papp goes with CC1=C(C(=O)NCc2nccn2C)C(c2ccccc2Cl)N=C(Nc2nc3ccccc3o2)N1 (stereo not drawn) ?
Result: > 1110 ×10⁻⁶ cm/s

Ask: Could you do the same for O=C1CC(C(=O)NCCO)CC2=C1C(c1ccccc1Cl)N=C(Nc1nc3ccccc3o1)N2 (stereo not drawn) , please?
Result: < 2 ×10⁻⁶ cm/s

Ask: Could you do the same for CC1=C(C(=O)Nc2nnc(-c3cccnc3)s2)C(c2ccccc2Cl)N=C(Nc2nc3cc(C)ccc3o2)N1 (stereo not drawn) , please?
Result: < 1.5 ×10⁻⁶ cm/s

Ask: Could you do the same for `CC1=C(C(=O)Nc2cc(C(=O)O)ccn2)[C@H](c2ccc(C)cc2Cl)N=C(Nc2nc3ccc(F)cc3o2)N1` , please?
Result: < 1 ×10⁻⁶ cm/s

Ask: Could you do the same for CC1=C(C(=O)Nc2cc(C(=O)O)ccn2)C(c2ccccc2Cl)N=C(Nc2nc3cccc(C)c3o2)N1 (stereo not drawn) , please?
Result: < 10 ×10⁻⁶ cm/s
